experiment_notes: Plasma pharmacokinetics, LC/MS/MS, non-compartmental analysis
assay_conditions: human, plasma, intravenous, T1/2, All dose levels; 34 pts; first dose; mean ± SD

smiles_repr: CN1CC[C@H](c2c(O)cc(O)c3c(=O)cc(-c4ccccc4Cl)oc23)[C@H](O)C1
half-life: 14.2 h

====

experiment_notes: Flavopiridol protein binding in patient PK samples by micro-equilibrium dialysis
assay_conditions: human, plasma, intravenous, Mean free flavopiridol plasma concentration at the end of the 4-hour infusion, patients who did not experience CKRS (N=20), cycle 1

smiles_repr: CN1CC[C@H](c2c(O)cc(O)c3c(=O)cc(-c4ccccc4Cl)oc23)[C@H](O)C1
concentration at 4 h, nM: 20
